Target: T1, Asf1 (1-156), conserved N-terminal domain of human Asf1 (human, UniProt Q9Y294 1-156)
T1 construct: range 1-156; The ITC legend says Asf1 1-156; Recombinant, cloned in peTM30; also called Asf1a 1-156
T1 sequence (Q9Y294 1-156 limits assumed): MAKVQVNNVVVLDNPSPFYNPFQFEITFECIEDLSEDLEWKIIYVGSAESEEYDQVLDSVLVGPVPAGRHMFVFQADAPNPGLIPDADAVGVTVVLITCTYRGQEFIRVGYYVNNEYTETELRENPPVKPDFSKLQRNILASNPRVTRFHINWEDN
Test: ITC (microcalorimetry)
pKd: −log10 of the molar value.
Decide by pKd: equal to or exceeding 7 means class 1, less means class 0.

# binder, class
measured = [
    ("GAMGRVPPAVRKLGNASTERKWAELARRIRGAGGVTLNGFG [inhibitor peptide Asf1/H3-H4 of SEQ ID No 65]", "class 1"),
    ("GAMGTIMPKDIQLARRIRGAGGRTLYGFG [inhibitor peptide Asf1/H3-H4, peptide i4_1]", "class 0"),
    ("GRKKRRQRRRGAMGTITPKEAQLARRIRGAGGVTLNGFG [inhibitor peptide Asf1/H3-H4, peptide TAT-i42V]", "class 0"),
    ("GAMGTLTPKEAELARRIRGAGGVTLNGANFVSTG [inhibitor peptide Asf1/H3-H4 of SEQ ID No 63]", "class 0"),
]
